Reference source for all entries: ChEMBL document CHEMBL5291721

- Assayed target: Muscarinic acetylcholine receptor M2 (Homo sapiens, UniProt P08172); also: assay procedure not described here
- Sequence (P08172 whole entry): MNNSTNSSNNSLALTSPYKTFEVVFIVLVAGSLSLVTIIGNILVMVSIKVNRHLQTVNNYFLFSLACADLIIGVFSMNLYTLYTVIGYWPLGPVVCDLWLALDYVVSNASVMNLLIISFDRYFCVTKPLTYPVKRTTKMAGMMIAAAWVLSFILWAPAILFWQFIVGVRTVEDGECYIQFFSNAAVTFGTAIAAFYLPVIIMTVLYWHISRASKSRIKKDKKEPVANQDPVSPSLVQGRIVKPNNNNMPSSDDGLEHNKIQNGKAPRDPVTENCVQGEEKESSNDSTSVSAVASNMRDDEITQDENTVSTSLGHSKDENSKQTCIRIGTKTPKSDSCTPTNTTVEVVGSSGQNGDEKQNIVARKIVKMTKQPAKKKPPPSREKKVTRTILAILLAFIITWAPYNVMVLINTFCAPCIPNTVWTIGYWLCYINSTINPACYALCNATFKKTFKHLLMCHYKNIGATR
- Assay type: functional, cell-based
Readout label: AC50

Example results:
>>> df
                                   molecule  assay_result
0                         NCCCNCCSP(=O)(O)O       > 30 µM
1  N[C@@H](Cc1cc(I)c(Oc2cc(I)c(O)c(I)c2)c(I)c1)C(=O)O       > 30 µM
2  CCOC(=O)C1=C(C)NC(C)=C(C(=O)OC)C1c1cccc(Cl)c1Cl (stereo not given)       > 10 µM
3  CS(=O)(=O)NC(=O)CCC/C=C\C[C@H]1C(=O)C[C@@H](O)[C@@H]1/C=C/[C@@H](O)COc1ccccc1       > 30 µM

Here's the next entry for you.
Return value of AC50 for input CCC1(c2ccccc2)C(=O)NCNC1=O , no commentary. > 10 µM
